Values were extracted from patent US20250297032A1.

Molecular target: T1, human FAPα on CHO-K1-hFAPα cells (human, UniProt Q12884 1-760)
T1 construct: whole, on cells; also called cell-surface FAPα
T1 sequence (looked up): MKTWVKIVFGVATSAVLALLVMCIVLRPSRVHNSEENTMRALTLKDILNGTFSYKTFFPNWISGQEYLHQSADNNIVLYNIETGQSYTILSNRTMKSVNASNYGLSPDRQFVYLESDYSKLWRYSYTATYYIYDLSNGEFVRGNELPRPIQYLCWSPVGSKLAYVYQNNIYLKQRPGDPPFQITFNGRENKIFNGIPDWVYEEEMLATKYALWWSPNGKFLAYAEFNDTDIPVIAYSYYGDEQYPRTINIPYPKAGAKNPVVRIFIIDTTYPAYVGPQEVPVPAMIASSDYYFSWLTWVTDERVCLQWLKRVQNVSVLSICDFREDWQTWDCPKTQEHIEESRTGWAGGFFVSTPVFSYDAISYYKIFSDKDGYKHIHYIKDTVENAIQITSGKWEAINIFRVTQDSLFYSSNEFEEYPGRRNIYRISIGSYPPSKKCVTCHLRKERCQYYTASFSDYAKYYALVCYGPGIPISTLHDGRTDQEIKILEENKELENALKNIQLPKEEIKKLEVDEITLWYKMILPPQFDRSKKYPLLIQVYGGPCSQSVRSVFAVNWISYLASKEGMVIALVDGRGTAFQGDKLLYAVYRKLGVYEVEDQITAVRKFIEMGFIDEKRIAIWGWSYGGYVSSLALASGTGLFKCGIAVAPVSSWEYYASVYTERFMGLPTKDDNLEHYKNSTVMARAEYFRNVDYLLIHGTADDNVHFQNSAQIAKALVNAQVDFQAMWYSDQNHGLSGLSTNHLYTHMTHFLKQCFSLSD
Test: flow cytometry on CHO-K1-hFAPα cells (MFI of PE)
Design: unit not given beside the values
Please provide measured Cmax for the entries that follow.
No unit in the answer, only the number.

stdin: Bench note: what Cmax did J59 (antibody, V domains shown, Tested as a mAb) VH: QVQLLESGGGVVQPGRSLRLSCAASGFTFSSYGMHWVRQAPGKGLEWVAVISYDGSNKYYADSVKGRFTISRDNSKNTLYLQMNSLRADDTAVYYCARESYTGLGSFLHWGQGTLVTVSA VL: NIQLTQSPSSLSASVGDRVTITCRASQTISNYLNWYQQKPGKAPKLLISAASSLQGGVPSRFSGSGSGTDFTLAISSLQPEDSATYYCQYWGTFGQGTKLEIK show?
stdout: 149

stdin: Bench note: what Cmax did G14 (antibody, V domains shown, Full human antibody from a Fab phage library; Tested as a mAb (detected with anti-human IgG, captured on Protein A); also called FAP-G14; FAP-G14-Bio (biotin-conjugated form)) VH: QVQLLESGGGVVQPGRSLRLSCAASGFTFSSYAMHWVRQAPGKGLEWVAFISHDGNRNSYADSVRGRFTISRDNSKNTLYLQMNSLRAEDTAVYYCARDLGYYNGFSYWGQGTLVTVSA VL: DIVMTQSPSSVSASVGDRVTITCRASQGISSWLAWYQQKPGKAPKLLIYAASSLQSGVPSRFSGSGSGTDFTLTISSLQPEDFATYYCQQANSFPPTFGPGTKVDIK show?
stdout: 515

stdin: Bench note: what Cmax did I38 (antibody, V domains shown, Tested as a mAb; also called FAP-I38) VH: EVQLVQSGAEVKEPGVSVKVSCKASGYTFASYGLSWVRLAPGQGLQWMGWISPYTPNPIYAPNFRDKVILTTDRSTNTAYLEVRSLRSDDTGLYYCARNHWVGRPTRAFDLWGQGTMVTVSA VL: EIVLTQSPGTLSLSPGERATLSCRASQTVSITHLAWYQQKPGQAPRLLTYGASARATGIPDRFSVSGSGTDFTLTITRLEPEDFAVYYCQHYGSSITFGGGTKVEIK show?
stdout: 189

stdin: Bench note: what Cmax did J40 (antibody, V domains shown, Tested as a mAb; also called FAP-J40; FAP-J40-Bio (biotin-conjugated form)) VH: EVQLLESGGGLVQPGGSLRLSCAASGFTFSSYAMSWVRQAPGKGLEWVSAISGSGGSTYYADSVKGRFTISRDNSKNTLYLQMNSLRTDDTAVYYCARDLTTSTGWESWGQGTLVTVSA VL: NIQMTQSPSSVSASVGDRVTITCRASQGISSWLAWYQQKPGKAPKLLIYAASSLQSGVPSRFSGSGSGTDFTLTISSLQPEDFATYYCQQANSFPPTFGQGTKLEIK show?
stdout: 381
